Source listed as ChEMBL document CHEMBL3102785.

Tested on: Streptococcus pneumoniae
Assay: Antibacterial activity against Streptococcus pneumoniae ATCC 49619 after 24 hrs by broth microdilution method
Format: functional
Conditions: ATCC 49619, 24 h
Measured Property: MIC (µg/mL)
Reply numerically in µg/mL, unit not repeated.

Could you share which MIC value was measured for C=C1NC(=O)[C@H](Cc2c[nH]c3ccc(Cl)cc23)NC(=O)[C@@H](NC(=O)/C(=C/C)NC(=O)[C@@H](N)C(C)C)CSC[C@@H](C(=O)N[C@@H]2C(=O)N3CCC[C@H]3C(=O)NCC(=O)N[C@H](C(=O)N[C@H](C(=O)N[C@H]3CSC[C@@H]4NC(=O)[C@H](CC(=O)O)NC(=O)[C@H](CSC[C@@H]5NC(=O)[C@H](Cc6ccccc6)NC(=O)[C@H](CS/C=C\NC5=O)NC4=O)NC(=O)CNC(=O)CNC(=O)CNC(=O)[C@@H]4CC(O)CN4C3=O)[C@@H](C)O)CSC2C)NC(=O)[C@H](CC(C)C)NC1=O (some centres undefined) ?
0.03

Could you share which MIC value was measured for C=C1NC(=O)[C@H](Cc2c[nH]c3ccc(Cl)cc23)NC(=O)[C@@H](NC(=O)/C(=C/C)NC(=O)[C@@H](N)C(C)C)CSC[C@@H](C(=O)N[C@@H]2C(=O)N3CCC[C@H]3C(=O)NCC(=O)N[C@H](C(=O)N[C@H](C(=O)N[C@H]3CSC[C@@H]4NC(=O)[C@H](CC(=O)O)NC(=O)[C@H](CSC[C@@H]5NC(=O)[C@H](Cc6ccccc6)NC(=O)[C@H](CS/C=C\NC5=O)NC4=O)NC(=O)CNC(=O)CNC(=O)CNC(=O)[C@@H]4C(O)C(O)CN4C3=O)[C@@H](C)O)CSC2C)NC(=O)[C@H](CC(C)C)NC1=O (some centres undefined) ?
0.015

Could you share which MIC value was measured for C=C1NC(=O)[C@H](Cc2c[nH]c3ccc(Cl)cc23)NC(=O)[C@@H](NC(=O)/C(=C/C)NC(=O)[C@@H](N)C(C)C)CSC[C@@H](C(=O)N[C@@H]2C(=O)N3CCC[C@H]3C(=O)NCC(=O)N[C@H](C(=O)N[C@H](C(=O)N[C@H]3CSC[C@@H]4NC(=O)[C@H](CC(=O)O)NC(=O)[C@H](CSC[C@@H]5NC(=O)[C@H](Cc6ccccc6)NC(=O)[C@H](CS/C=C\NC5=O)NC4=O)NC(=O)CNC(=O)CNC(=O)CNC(=O)[C@@H]4CCCN4C3=O)[C@@H](C)O)CSC2C)NC(=O)[C@H](CC(C)C)NC1=O (some centres undefined) ?
0.03
